- SYSTEM: StOASS-B (Salmonella typhimurium, UniProt P29848)
- Construct: His-tag (with TEV site) (cleaved yes); made in house; host or cells: E. coli Rosetta (DE3)
- Sequence (P29848 whole entry): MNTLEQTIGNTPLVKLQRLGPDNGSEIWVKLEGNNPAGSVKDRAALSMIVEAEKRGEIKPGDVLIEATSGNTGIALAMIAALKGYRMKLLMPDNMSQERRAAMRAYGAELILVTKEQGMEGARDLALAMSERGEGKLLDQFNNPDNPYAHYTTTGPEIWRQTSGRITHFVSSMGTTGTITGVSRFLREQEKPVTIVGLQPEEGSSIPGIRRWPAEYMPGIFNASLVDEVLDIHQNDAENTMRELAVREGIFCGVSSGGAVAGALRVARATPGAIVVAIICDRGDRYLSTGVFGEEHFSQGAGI
- PROCEDURE_SUMMARY: Fluorescence binding assay on purified recombinant StOASS-B
- CONDITION_INFO: 20 °C, 100 mM HEPES, 5% DMSO, pH 7.0; racemic mixture; esters tested up to 100 μM
READOUT_NAME: KD (μM) OASS-B

>  <COMPOUND>
CCOC(=O)[C@]1(Cc2ccc(C)cc2)C[C@H]1c1cccc(-c2cc(O)cc(F)c2)c1 (relative stereo)

>  <READOUT_NAME>
KD (μM) OASS-B

>  <ENDPOINT_VALUE>
No binding

$$$$
>  <COMPOUND>
Cc1ccc(C[C@@]2(C(=O)O)C[C@H]2c2cccc(N3CCNCC3)c2)cc1 (relative stereo) [Compound 21i]

>  <READOUT_NAME>
KD (μM) OASS-B

>  <ENDPOINT_VALUE>
detrimental effect

$$$$
>  <COMPOUND>
CCOC(=O)[C@]1(Cc2ccc(C)cc2)C[C@H]1c1cccc(N2CCN(C)CC2)c1 (relative stereo) [Compound 20j]

>  <READOUT_NAME>
KD (μM) OASS-B

>  <ENDPOINT_VALUE>
No binding

$$$$
>  <COMPOUND>
Cc1ccc(C[C@@]2(C(=O)O)C[C@H]2c2cccc(N3CCN(C)CC3)c2)cc1 (relative stereo) [Compound 21j]

>  <READOUT_NAME>
KD (μM) OASS-B

>  <ENDPOINT_VALUE>
detrimental effect

$$$$
>  <COMPOUND>
CCOC(=O)[C@]1(Cc2ccc(C)cc2)C[C@H]1c1cccc(N2CCNCC2)c1 (relative stereo) [Compound 20i]

>  <READOUT_NAME>
KD (μM) OASS-B

>  <ENDPOINT_VALUE>
No binding

$$$$
>  <COMPOUND>
CCOC(=O)[C@]1(Cc2ccc(C)cc2)C[C@H]1c1cccc(N2CCOCC2)c1 (relative stereo) [Compound 12g]

>  <READOUT_NAME>
KD (μM) OASS-B

>  <ENDPOINT_VALUE>
No binding

$$$$
>  <COMPOUND>
CCOC(=O)[C@]1(Cc2ccc(C)cc2)C[C@H]1c1cccc(-c2cn[nH]c2)c1 (relative stereo)

>  <READOUT_NAME>
KD (μM) OASS-B

>  <ENDPOINT_VALUE>
No binding

$$$$

====

- SYSTEM: StOASS-A (Salmonella typhimurium)
- Construct: His-tag (with TEV site) (cleaved yes); made in house; host or cells: E. coli Rosetta (DE3)
- Sequence (P0A1E3 whole entry): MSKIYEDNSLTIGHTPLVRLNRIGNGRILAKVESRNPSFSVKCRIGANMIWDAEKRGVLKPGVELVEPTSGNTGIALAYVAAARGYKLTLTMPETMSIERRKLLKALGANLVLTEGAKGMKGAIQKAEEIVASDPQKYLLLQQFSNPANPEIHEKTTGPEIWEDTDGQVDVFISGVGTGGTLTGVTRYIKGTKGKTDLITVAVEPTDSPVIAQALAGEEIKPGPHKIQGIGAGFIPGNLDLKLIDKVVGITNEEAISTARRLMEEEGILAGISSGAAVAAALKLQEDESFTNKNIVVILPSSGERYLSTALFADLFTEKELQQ
- PROCEDURE_SUMMARY: Fluorescence binding assay on purified recombinant StOASS-A
- Design: species or system S. Typhimurium
- CONDITION_INFO: 20 °C, 100 mM HEPES, 5% DMSO, pH 7.0; racemic mixture; esters tested up to 100 μM; read-out: KD (μM) OASS-A
READOUT_NAME: log10 of Kd (log10 of the value in µM)

>  <COMPOUND>
Cc1ccc(C[C@@]2(C(=O)O)C[C@H]2c2cccc(-c3c[nH]nc3C)c2)cc1 (relative stereo)

>  <log10 of Kd>
0.27

$$$$
>  <COMPOUND>
Cc1ccc(C[C@@]2(C(=O)O)C[C@H]2c2cccc(-c3ccccc3)c2)cc1 (relative stereo)

>  <log10 of Kd>
0.40

$$$$
>  <COMPOUND>
Cc1ccc(C[C@@]2(C(=O)O)C[C@H]2c2cccc(-c3cc(O)cc(F)c3)c2)cc1 (relative stereo)

>  <log10 of Kd>
-1.46

$$$$
>  <COMPOUND>
Cc1ccc(C[C@@]2(C(=O)O)C[C@H]2c2cccc(-c3cnc(N)nc3)c2)cc1 (relative stereo)

>  <log10 of Kd>
-0.24

$$$$
>  <COMPOUND>
Cc1ccc(CC2(C(=O)O)CC2c2cccc(N3CC(C)OC(C)C3)c2)cc1 (stereo not drawn) [Compound 13h]

>  <log10 of Kd>
-1.18

$$$$
>  <COMPOUND>
Cc1ccc(C[C@@]2(C(=O)O)C[C@H]2c2cccc(-c3cn[nH]c3)c2)cc1 (relative stereo)

>  <log10 of Kd>
0.00

$$$$
>  <COMPOUND>
Cc1ccc(C[C@@]2(C(=O)O)C[C@H]2c2cccc(N3CCN(C)CC3)c2)cc1 (relative stereo) [Compound 21j]

>  <log10 of Kd>
-0.60

$$$$
>  <COMPOUND>
Cc1ccc(C[C@@]2(C(=O)O)C[C@H]2c2cccc(N3CCOCC3)c2)cc1 (relative stereo) [Compound 13g]

>  <log10 of Kd>
-1.00

$$$$
>  <COMPOUND>
Cc1ccc(C[C@@]2(C(=O)O)C[C@H]2c2cccc(-c3cccc(F)c3)c2)cc1 (relative stereo)

>  <log10 of Kd>
-1.29

$$$$

From: paper PMC9227781
